Reported viability at 10 µM values for the following compounds.
test system: K562; experiment: Cytotoxicity against human K562 cells assessed as cell viability at 10 uM; format: functional; conditions: read-out: Activity
Provide the reading as a plain figure in %.

Answered examples (3):
CCOC(C[Se]C1=C([Se]CC(OCC)OCC)C(=O)c2ccccc2C1=O)OCC    8.6
CC1=C([Te]c2ccccc2)C(=O)c2ccccc2C1=O    4.1
O=C1C([Te]c2ccccc2)=C([Te]c2ccccc2)C(=O)c2ccccc21    15

Note: attention shifts to another entry.
Query :: Note viability at 10 µM for the compound shown: `CC1=C([Te]c2ccc(O)cc2)C(=O)c2ccccc2C1=O`
Result :: 30

----------
tested on: PBMC; test: Cytotoxicity against human PBMC; format: cell-based
ATTRIBUTE MEASURED: Activity

O=C1C([Se]c2ccccc2)=C([Se]c2ccccc2)C(=O)c2c(O)ccc(O)c21    Toxic
O=C1C([Se]c2ccccc2)=C([Se]c2ccccc2)C(=O)c2ccccc21    Non-toxic
CC1=C([Te]c2ccccc2)C(=O)c2ccccc2C1=O    Non-toxic
O=C1C([Te]c2ccccc2)=C([Te]c2ccccc2)C(=O)c2ccccc21    Non-toxic
